Attribution: patent US7220751B2

Target: UniProtKB P41146
Sequence (P41146 whole entry): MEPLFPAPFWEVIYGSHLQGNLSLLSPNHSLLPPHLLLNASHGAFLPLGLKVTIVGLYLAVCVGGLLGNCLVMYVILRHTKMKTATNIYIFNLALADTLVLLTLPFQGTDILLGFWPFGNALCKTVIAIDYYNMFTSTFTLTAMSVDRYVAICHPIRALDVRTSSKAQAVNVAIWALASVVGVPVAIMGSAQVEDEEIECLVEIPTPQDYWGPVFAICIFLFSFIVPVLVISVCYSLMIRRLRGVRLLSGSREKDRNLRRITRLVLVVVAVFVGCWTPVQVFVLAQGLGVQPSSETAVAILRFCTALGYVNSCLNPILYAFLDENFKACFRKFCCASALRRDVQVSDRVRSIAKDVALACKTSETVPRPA
Counter-ions that a name gives are not always drawn.
Entries whose Ki is below 20 nM take Met; entries at or above 20 nM take Not met.

compound="COc1ccc2nc(C=Cc3ccc(Cl)cc3)nc(N[C@H]3CCCC[C@H]3N)c2c1 (relative stereo) [Example 25, dihydrochloride]" cat="Not met"
compound="Cc1ccc2nc(C=Cc3ccc(Cl)cc3)nc(N[C@H]3CC[C@@H](N)CC3)c2c1 [Example 22, dihydrochloride]" cat="Not met"
compound="COc1ccc2nc(C=Cc3ccccn3)nc(N[C@@H]3CC[C@H](N)C[C@@H]3C)c2c1 (relative stereo) [Example 51, Trihydrochloride]" cat=Met
compound="Cc1ccc2nc(C=Cc3ccccn3)nc(N[C@@H]3CC[C@H](N)C[C@@H]3C)c2c1 [Example 57, Trihydrochloride]" cat="Not met"
compound="Cc1ccc2nc(C=Cc3ccccn3)nc(N[C@H]3CC[C@@H](N)CC3)c2c1.Cl.Cl.Cl [Example 40, Trihydrochloride]" cat=Met

Record COc1ccc2nc(C=Cc3ccccn3)nc(N[C@H]3CC[C@@H](N)CC3)c2c1 [Example 44, Trihydrochloride] : is its Ki strictly below 20 nM? Not met

Record Cc1ccc2nc(C=Cc3ccccn3)nc(N[C@H]3CC[C@@H](N)C[C@H]3C)c2c1 [Example 58, Trihydrochloride] : is its Ki strictly below 20 nM? Met

Record Cc1ccc2nc(C=Cc3ccccn3)nc(N[C@@H]3CC[C@H](N)C[C@@H]3C)c2c1 (relative stereo) [Example 1, Trihydrochloride] : is its Ki strictly below 20 nM? Met

###

Where a name gives a salt, the structure may show the parent alone.
The listing below reports Ki for compounds tested on human μ receptor (Homo sapiens).
Sequence (P35372 whole entry): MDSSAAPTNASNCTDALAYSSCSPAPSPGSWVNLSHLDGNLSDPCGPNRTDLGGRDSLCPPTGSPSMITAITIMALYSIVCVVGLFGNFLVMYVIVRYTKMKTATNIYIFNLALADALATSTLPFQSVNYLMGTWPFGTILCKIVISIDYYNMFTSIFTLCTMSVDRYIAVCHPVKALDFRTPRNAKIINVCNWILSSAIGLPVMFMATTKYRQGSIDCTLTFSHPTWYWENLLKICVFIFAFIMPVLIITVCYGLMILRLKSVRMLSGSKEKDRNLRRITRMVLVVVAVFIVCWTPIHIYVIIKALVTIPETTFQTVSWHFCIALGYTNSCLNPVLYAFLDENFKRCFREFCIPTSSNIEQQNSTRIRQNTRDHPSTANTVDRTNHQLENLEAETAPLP
Report only the number, with the unit nM understood.

compound="Cc1ccc2nc(C=Cc3ccccn3)nc(N[C@@H]3CC[C@H](N)C[C@@H]3C)c2c1 (relative stereo) [Example 1, Trihydrochloride]" subject_of_test="human μ receptor (Homo sapiens)" endpoint_unit=nM obs_value=207

Param request: Ki | system human μ receptor (Homo sapiens) | item COc1ccc2nc(C=Cc3ccc(Cl)cc3)nc(N[C@H]3CCCC[C@H]3N)c2c1 (relative stereo) [Example 25, dihydrochloride] 204

Param request: Ki | system human μ receptor (Homo sapiens) | item Cc1ccc2nc(C=Cc3ccccn3)nc(N[C@H]3CC[C@@H](N)CC3)c2c1.Cl.Cl.Cl [Example 40, Trihydrochloride] 288

Param request: Ki | system human μ receptor (Homo sapiens) | item Cc1ccc2nc(C=Cc3ccc(Cl)cc3)nc(N[C@H]3CC[C@@H](N)CC3)c2c1 [Example 22, dihydrochloride] 313

Param request: Ki | system human μ receptor (Homo sapiens) | item Cc1ccc2nc(C=Cc3ccccn3)nc(N[C@@H]3CC[C@H](N)C[C@@H]3C)c2c1 [Example 57, Trihydrochloride] 284

Param request: Ki | system human μ receptor (Homo sapiens) | item COc1ccc2nc(C=Cc3ccccn3)nc(N[C@@H]3CC[C@H](N)C[C@@H]3C)c2c1 (relative stereo) [Example 51, Trihydrochloride] 206

Param request: Ki | system human μ receptor (Homo sapiens) | item Cc1ccc2nc(C=Cc3ccccn3)nc(N[C@H]3CC[C@@H](N)C[C@H]3C)c2c1 [Example 58, Trihydrochloride] 234

Param request: Ki | system human μ receptor (Homo sapiens) | item COc1ccc2nc(C=Cc3ccccn3)nc(N[C@H]3CC[C@@H](N)CC3)c2c1 [Example 44, Trihydrochloride] 492
